Assay: In vivo receptor-blocking study in nude mice bearing MDA-MB-231 xenografts
Details: mouse, liver, total radioactivity; nude mice with MDA-MB-231 xenografts, 2 h p.i., co-injected ~100 µg unlabeled AngII peptide analog, mean ± SD; read-out: Liver uptake, blocked
Where a SMILES comes first, the peptide text is derived from it. [ ]: non-standard residue; d: D form. The star is where a group is joined. DOTA = O=C(O)CN1CCN(CC(=O)O)CCN(CC(=O)*)CCN(CC(=O)O)CC1; βAla = NCCC(=O)O
measured metric: tissue uptake at 2 h (%ID/g)
Number only, in %ID/g; omit the unit.

Return tissue uptake at 2 h for the following compound: CC[C@H](C)[C@H](NC(=O)[C@H](Cc1ccc(O)cc1)NC(=O)[C@@H](NC(=O)[C@H](CCCNC(=N)N)NC(=O)[C@H](CC(=O)O)NC(=O)CCNC(=O)[C@H](CCCCN)NC(=O)CN1CCN(CC(=O)O)CCN(CC(=O)O)CCN(CC(=O)O)CC1)C(C)C)C(=O)N[C@@H](Cc1c[nH]cn1)C(=O)N1CCC[C@H]1C(=O)N[C@@H](Cc1ccccc1)C(=O)N[C@@H](Cc1c[nH]c2ccccc12)C(=O)N[C@@H](CCCCN)C(=O)N[C@@H](Cc1ccc(O)cc1)C(N)=O [^68Ga-DOTA-AngII peptide, metal not drawn] ({DOTA}-K[βAla]DRVYIHPFWKY-NH2)
0.85

Where these numbers come from: paper PMC10675340
